All values here come from patent US11534434B2.

Molecular target: human M4 mAChR (Homo sapiens, UniProt P08173)
Construct: expressed in transfected cells
Sequence (P08173 whole entry): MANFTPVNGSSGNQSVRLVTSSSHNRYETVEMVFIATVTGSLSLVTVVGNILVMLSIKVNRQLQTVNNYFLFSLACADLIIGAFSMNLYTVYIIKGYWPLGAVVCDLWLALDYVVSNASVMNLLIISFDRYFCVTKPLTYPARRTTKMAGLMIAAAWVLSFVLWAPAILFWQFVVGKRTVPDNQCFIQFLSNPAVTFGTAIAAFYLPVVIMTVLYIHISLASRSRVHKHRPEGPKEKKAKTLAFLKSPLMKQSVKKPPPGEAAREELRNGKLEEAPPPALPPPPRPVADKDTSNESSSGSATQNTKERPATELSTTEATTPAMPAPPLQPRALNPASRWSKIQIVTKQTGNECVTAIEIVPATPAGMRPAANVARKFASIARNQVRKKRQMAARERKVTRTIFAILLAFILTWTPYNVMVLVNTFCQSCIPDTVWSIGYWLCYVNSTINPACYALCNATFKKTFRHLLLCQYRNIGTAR
Assay: Whole-cell functional agonist activity, phospho-ERK (pERK), CHOK1-based human M4 mAChR stable cell line
Conditions: top of curve, % of min (DMSO) and max (10 mM Acetylcholine) responses
Binary call on M4 Top (%): 1.0 from 80% upward, 0.0 beneath that.

Before answering, review these 5 worked examples.
CCCCCCOc1nsnc1C1=CCCN(C)C1 [Xanomeline, reference compound]    1.0
CCCCC(F)(F)COc1nsnc1C1=CCCN(C)C1    0.0
CN1CCC=C(c2nsnc2OCCCCCC(F)F)C1    1.0
CN1CCC=C(c2nsnc2OCCCCCCF)C1    1.0
CCC(F)(F)CCCOc1nsnc1C1=CCCN(C)C1    0.0

--- query ---
Would you say CN1CCC=C(c2nsnc2OCCCCC(C)(F)F)C1 shows M4 Top (%) at minimum 80%?
0.0
